Numbers sourced from patent US20140289906A1.

- ASSAY METHOD TEXT: 14C assay: 14CO2 capture from [14C]-carboxyl-labeled dicamba with IPTG-induced recombinant E. coli cells
- SETTINGS: IPTG-induced recombinant E. coli cells; 14CO2 from [14C]-carboxyl-labeled dicamba

MOLECULE	Dicamba Decarboxylase Activity
6 (protein, Treponema brennaborense) MAEILSPEESIYYSKLSNDILAEGIKKNPTRFRGFAALPTPDPIQAAMELERCIKLGGFVGAIINGHINGHYLDEIQFDPILEAADALDVPLYIHPAVPPKAIIDTYYKMNDTYAQTVMVSGGWGWHIETGVHVLRLISSGVFDRHPNLKIVIGHLGEGLPFFMHRLNNAIGGNLKKSYSTYLKENIYYTISGFNDPDLFQFVLKKVGENNIMFSSDYPFNFPKREVELFNELNISEEVREKISFKNAERILKI	No
101 (protein, listed as Aquifex aeolicus) MAQKIALCITGASGVIYGIKLLQVLEELDFSVDLVISRNAKVVLKEEHSLTFEEVLKGLKNVRIHEENDFTSPLASGSRLVHYRGVYVVPCSTNTLSCIANGINKNLIHRVGEVALKERVPLVLLVREAPYNEIHLENMLKITRMGGVVVPASPAFYHKPQSIDDMINFVVGKLLDVLRIEHNLYKRWRG	No
87 (protein, listed as Novosphingobium sp.) MASDIATAADLQTGGRQGYLRIATEEAFATRDQIDVYLRMVRDGTADRGMTSLWGFYAQSPSARATQIIERLLDLGEQRLADMDAAGIDKAVLALTSPGVQPLLDMEEARRIAGNANDRLAERCAAHPDRFIGMTAVAPQDPQWSAREILRGATQLGFKGVQINSHTQGRYLDEPFFDPIFRALGDVGQPLYIHPGTPPDSMIGPLLDAGLDGAIYGFGVETGMHLLRLITAGIFDRYPDLQIMVGHMGEALPYWLYRLDYMHQAGIRSQRYERMRPLKRTIAGYFRSNVLVTCSGMAWEPAIQFARQVMGEDRVMYAMDYPYQYEADEVRALDVMDLSPESKRKFFQTNAERWFDL	High
40 (protein, listed as Rhodococcus jostii) MAQGKIALEEHFAIPETLNDSAGFVPGTYWDELQARLLDIQDVRLKLMDEHNIETMILSLNAPAVQAIPERERAIDIARRANDVLAEECAKRPDRFRGFAALPLQDPDAAAEELRRCVTELGFVGALVNGFSQSATVDGGSTPLYYDLPRYRPFWAEVERLDVPFYLHPRNPLNQDARIYEGHPWLLGPTWAFAQETAVHALRLMASGLFDEHPGLRIVLGHMGEGIPAMLWRIDHRNAWVDVPPAYPAKRRMVDYFTENFFVTTSGNFRTQTLIDLLLELGSERVMFSTDWPFENINHAAEWFDAASISEADRLKIGRTNAATLFKLDR	Low
105 (protein, Deinococcus radiodurans) MAIDFHVHLDLYPDPVAVARACEERQLTVLSVTTTPAAWRGTLALAAGRPHVWTALGFHPEVVSERAADLPWFDRYLPETRFVGEVGLDGSPSLRGTWTQQFAVFQHILRRCEDHGGRILSIHSRRAESEVLNCLEANPRSGTPILHWYSGSVTELRRAISLGCWFSVGPTMVRTQKGAALIRSMPRDRVLTETDGPFLELDGQAALPWDVKSVVEGLSKIWQIPASEVERIVKENVSRLLGTVR	No
61 (protein, listed as Gordonia amarae) MATGAGSGVPSPADRVIVRSPGVIDVHAHAVLPMSLGCAGAAGPEIGYREDGSPFFRVGEYVLNGVRYEGSAFMDPEVRVAAMDAAGIGLQMISPNPITYFTRLDARSATDYARAHNDAIAEAAGRHPGRLVGAAQLPMQDVPAAIAELERSVRELGLVAAYIDTDIGDRTLDAPELDDFYSAAVELDVPVFIHPSPVGQEGPPDDTRLRRFDLDLLLGFSYDETLAVAALVFGGVLERHPALDVCLSHGGGTLAFVAGRFARAVAKPRAWVPEFLVENGIESYLRRLWLDTHVHSAGSLRLLIDTVGTDRLVFGTNFAGWDADGATEVDALGDLRETTTANAAHLLRLGRA	No
37 (protein, listed as Burkholderia gladioli) MATFSNVKKIALEEHFAIAETIEDSAGFVPPDDWVELRGRLLDIQERRLAEMDRAGIELMVLSLNAPAVQAIRDPRQAVELARRANDYLAEQVARRPDRFRAFAALPMQAPEQAIREAERCVRELGFVGALVNGFSEAEDGAELYYDLPRYRPFWAALEALEVPFYLHPRNPLAGRAPIYDGHSWLMGPTWAFGQETAVHALRLMGSGLFDAHPRLQIILGHMGEGLPYSMWRVDNRNAWVSAKPNYPAEKPIAEYFRNNFWLTTSGNFRTQTLIDAMLEIGSDRILFSADWPFENMDHAADWFDHASISENDRIKIGRGNAERLLKLGR	Low
83 (protein, listed as Mycobacterium rhodesiae) MALIALEEHYAWSPVSAGNVVGSWLETHNVTAYQRLYDRGPLRLEQMDAAGIDFQILSLFDPGVQDDDDTARAVENARRANDDLAETVRAAPDRFGGFATLAPQDPDAAAAELERAVGELGLVGGLINGHTHGRYLDDPAYLGLFECAQRLGVPIYLHPTTPHPAVMDAWFAPYVKDGLHLASWGFAAETGTHALRLIYSGLFDTFPRLQMILGHLGEMLPYAAYRIDRYYGLGGGDDGGRLARLPSEYLRDNFHVTTSGNFNPVAFACALDVMGPDRLMFSVDYPMDDNVTGAEFLRNLEVDDDVRRKVAGENALQLFGDKIPRR	Low
